Recorded measurements of binding signal, one per entry
Target: OsWRKY34 (Oryza sativa, UniProt Q0JBA9 1-250)
Sequence (Q0JBA9 entry or part of it): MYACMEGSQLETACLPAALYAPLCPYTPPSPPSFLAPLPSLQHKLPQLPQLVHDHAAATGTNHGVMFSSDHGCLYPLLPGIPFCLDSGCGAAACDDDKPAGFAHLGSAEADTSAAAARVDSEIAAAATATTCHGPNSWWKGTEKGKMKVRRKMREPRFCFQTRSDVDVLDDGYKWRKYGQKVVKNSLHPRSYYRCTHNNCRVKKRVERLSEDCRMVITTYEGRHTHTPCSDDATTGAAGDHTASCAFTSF
Experiment: protein-binding microarray (RPBM); PBS, 2% BSA, 51.3 ng/ul salmon testes DNA, 50 uM zinc acetate, 200 nM TF, 25 C, 1 h; high values mean tight binding
Settings: protein: recombinant; tags: N-terminal polyhistidine and DsRed monomer fusion (pET32a); label: CyDye5-dUTP incorporated in the synthesized complementary strand; 3' TTTTT single-stranded linker to array surface; dsDNA, one strand shown
In all, about 68,000 sequences were measured (“fluorescence intensity (a.u.)”: median about 9,100, highest 2% from about 16,000 on). Only a selection was taken, and the highest values are over-represented in it overall.

A selection of reference data follows.
Short answer for "TTCATTCATATGGTGTAACTTTTTGTCGCTGTAGGATCGCCGGAGTCACCTAGTGCAG" : binding signal was 8130 fluorescence intensity (a.u.)

Looking up "GCCGCCGCCTCGCTCCCCATGGCGTCCGTACACTCCGGCGCGGAGTCACCTAGTGCAG" , I found its binding signal recorded as 10300 fluorescence intensity (a.u.)

Reported binding signal ( "CGTATACCTCGGAGAAGTTCTCATCCGCTGACGTGTCCCGCGGAGTCACCTAGTGCAG" ) = 19600 fluorescence intensity (a.u.)

Others:
// "ACCTTTGCTCACGATCCCAATGGCTTTAATTATGTACCACCGGAGTCACCTAGTGCAG" : binding signal value = 8830 fluorescence intensity (a.u.)

Summary for this sequence, "GTATAACGCCGTTGACTTTTTAACCAATGTTTGACCATTCCGGAGTCACCTAGTGCAG" : binding signal is 40400 fluorescence intensity (a.u.)

The sequence listed as "TGACATGGTTGTTAGGGTTTGCGAGCAAATTTTCGTGGGGCGGAGTCACCTAGTGCAG" has a reported binding signal of 10100 fluorescence intensity (a.u.)

GET /value?item= "TTTTTACACGCGTTTTTTTTACATTGTCGTTTTTTTTTTGCGGAGTCACCTAGTGCAG" &field=binding signal returns 13500 fluorescence intensity (a.u.)

// sample "TTTTTACATCTTAGCCCCTTGCCGCTTTTGCGAATTTTGCCGGAGTCACCTAGTGCAG" , its binding signal was 9810 fluorescence intensity (a.u.)

"GCAGTCGGTTCGCGTTTGTTTTTTTTCTTTCTTTCTTTTTCGGAGTCACCTAGTGCAG" yielded binding signal of 18400 fluorescence intensity (a.u.)

Item: "CCACTCTCCGGCGCACCTATTTTCCATTTATATATATATGCGGAGTCACCTAGTGCAG" | binding signal: 9670 fluorescence intensity (a.u.)

response.value for "CGCGGGAATCGGCCGGCGACGTGGGGAGGTGGGGAGGAGACGGAGTCACCTAGTGCAG" (field: binding signal) = 8900 fluorescence intensity (a.u.)

The recorded binding signal for entry "GGCAATCCGGTGCTCCTTGTCTGAACTCTCTCAATCTCAACGGAGTCACCTAGTGCAG" equals 8040 fluorescence intensity (a.u.)

The reported binding signal of the sequence "ATTATTGTTGTACAGTTCTTGCCTACAGTTCGGTTTTTCTCGGAGTCACCTAGTGCAG" was 19700 fluorescence intensity (a.u.)

Consider "GGCTGTTGTTTTTCCTTGTTATTCTTTCAGTAAGATATTTCGGAGTCACCTAGTGCAG" . Its measured binding signal is 12800 fluorescence intensity (a.u.)

Entry "GTCCGCATCTCATCCTTCCGCAAGTCCGTATCTCATCCCTCGGAGTCACCTAGTGCAG" — recorded binding signal = 10400 fluorescence intensity (a.u.)

----------
Biological target: OsWRKY34 (Oryza sativa, UniProt Q0JBA9 1-250)
Assay: protein-binding microarray (RPBM); PBS, 2% BSA, 51.3 ng/ul salmon testes DNA, 50 uM zinc acetate, 200 nM TF, 25 C, 1 h; high values mean tight binding
Conditions: protein: recombinant; tags: N-terminal polyhistidine and DsRed monomer fusion (pET32a); label: CyDye5-dUTP incorporated in the synthesized complementary strand; 3' TTTTT single-stranded linker to array surface; dsDNA, one strand shown
In all, about 68,000 sequences were measured (“fluorescence intensity (a.u.)”: median about 9,100, highest 2% from about 16,000 on). The sample as a whole holds a higher share of the highest values than the screen did.
OBSERVATION TYPE: binding signal

Measured binding signal, "GAGTGCCATTGAATCCTTCTGTTGCGTTGACCACCAAATGCGGAGTCACCTAGTGCAG" : 16500 fluorescence intensity (a.u.)

The measured binding signal associated with "TTCTGAATGTGATTGAATTAATTGGACTTGCGTTGACCTTCGGAGTCACCTAGTGCAG" reads 11700 fluorescence intensity (a.u.)

The measured binding signal associated with "TGTTTTGTGGGGAGGGGTGTACATATACAACTTAGTACTCCGGAGTCACCTAGTGCAG" reads 20300 fluorescence intensity (a.u.)

Memo: "TGCGCCATCTTTTGTCGTCCCGAGGGGATGGGCGGGGTTGCGGAGTCACCTAGTGCAG" , reported binding signal: 16400 fluorescence intensity (a.u.)

sequence "GTGCATGTGTAGGGAGGGCACAATGGAGGGGTGTTTTTTTCGGAGTCACCTAGTGCAG" , binding signal observed: 15000 fluorescence intensity (a.u.)

New cases:
Lab note: measured binding signal of "ATGGGTGGAGGAGTGGGAGGGGATTAAATATCGGCGGAGGCGGAGTCACCTAGTGCAG" was 9240 fluorescence intensity (a.u.)

Looking up "TTGACTTTTTTAAACATGTTTAACTGTTCGTCTTATTAAACGGAGTCACCTAGTGCAG" , I found its binding signal recorded as 8820 fluorescence intensity (a.u.)

----------
Target: OsWRKY34 (Oryza sativa, UniProt Q0JBA9 1-250)
Assay: protein-binding microarray (RPBM); PBS, 2% BSA, 51.3 ng/ul salmon testes DNA, 50 uM zinc acetate, 200 nM TF, 25 C, 1 h; high values mean tight binding
Conditions: protein: recombinant; tags: N-terminal polyhistidine and DsRed monomer fusion (pET32a); label: CyDye5-dUTP incorporated in the synthesized complementary strand; 3' TTTTT single-stranded linker to array surface; dsDNA, one strand shown
In all, about 68,000 sequences were measured (“fluorescence intensity (a.u.)”: median about 9,100, highest 2% from about 16,000 on). Many of the other results were omitted from the sample, so the highest values are more common in it than they were.
OBSERVATION TYPE: binding signal

Check out these entries, answers already filled in.
# sequence "CTTGTACATCTGTCTTGCTAGAGTCTTTCACAAGATTACACGGAGTCACCTAGTGCAG" ; its binding signal = 8080 fluorescence intensity (a.u.)

Note to self: binding signal recorded for "GCTGCCCGCTCTAATCTGTTTTGTCTCCATCTGCTATGATCGGAGTCACCTAGTGCAG" was 8950 fluorescence intensity (a.u.)

Sample "ATTTCTCTTGCCTATGTTTTCATTTTGCAATTATTTTTGTCGGAGTCACCTAGTGCAG" ; binding signal observed: 10500 fluorescence intensity (a.u.)

Reported binding signal of "AGGATCTTTATACACATAGCTACCACAATGGCTACAATTACGGAGTCACCTAGTGCAG" : 8130 fluorescence intensity (a.u.)

More entries:
Looking up "CTCCGCATCCCTCTCGCTCCTACCTTACCCCTCGCCGCCACGGAGTCACCTAGTGCAG" , I found its binding signal recorded as 10200 fluorescence intensity (a.u.)

Briefly, binding signal measured for "CTCTCCCGGTCGCGCCGCCATCTCCTCTCCCAATCGCGCGCGGAGTCACCTAGTGCAG" : 8860 fluorescence intensity (a.u.)

// "TATCTCTCTCCCGCTGACAACCCGGTCACACCGAACCAACCGGAGTCACCTAGTGCAG" : binding signal value = 8990 fluorescence intensity (a.u.)

Looking up "ATGCTCGATCACATGCTTAATTCTTAGCTTTGTCCTAGTTCGGAGTCACCTAGTGCAG" , I see its binding signal listed as 8230 fluorescence intensity (a.u.)

The value of binding signal measured for the sequence "ATTTGATTTATTGTTAAATATACTTTCATGTACACATATACGGAGTCACCTAGTGCAG" turned out to be 8240 fluorescence intensity (a.u.)

Query "GCTTCGCTTTGCGCTCTCTCTATCTCTCTCTCTTCCAAAACGGAGTCACCTAGTGCAG" yields binding signal of 8490 fluorescence intensity (a.u.)

Record "CTCTGTCCTATTGGAACATTTCTCTGAAGCAACACCATATCGGAGTCACCTAGTGCAG" . Reported binding signal: 9340 fluorescence intensity (a.u.)

Reported binding signal ( "CACAGCGTCCACACCCGCGCCGCCGCCGCCCTCACCCTCGCGGAGTCACCTAGTGCAG" ) = 8760 fluorescence intensity (a.u.)
